// provenance: PubChem BioAssay (EPA / NIEHS)

# Method notes: ATG_MRE_CIS: Attagene CIS-FACTORIAL HepG2 Assay for human Metal Responsive Element (MRE) (AID 2282954)
# Particulars: HepG2 MRE cis-reporter transcription, Attagene multiplex; actives raise or lower the signal
Active and inactive are the calls of the source. The calls were made as follows: active = hit-call score of the fitted dose curve at least 0.9, where 1 is the maximum; inactive = score below 0.9.
Outcomes: 1 (active), 0 (inactive)

[[record]]
compound = "NC(=O)C1CO1 (configuration not stated)"
class_assignment = 0

[[record]]
compound = "O=C(/C=C/C=C/c1ccc2c(c1)OCO2)N1CCCCC1"
class_assignment = 1

[[record]]
compound = "CCCc1ccc(OC)cc1"
class_assignment = 0

[[record]]
compound = "CCOC(=O)Cc1cccc2ccccc12"
class_assignment = 0

[[record]]
compound = "Cn1c([N+](=O)[O-])cnc1COC(N)=O"
class_assignment = 0

[[record]]
compound = "CC/C=C\\CCOC(=O)CCCCC"
class_assignment = 0

[[record]]
compound = "Nc1ncn([C@@H]2O[C@H](CO)[C@@H](O)[C@H]2O)c(=O)n1"
class_assignment = 0

[[record]]
compound = "CCCCCCCCCCCCCCCC[N+](C)(C)CC"
class_assignment = 1

[[record]]
compound = "CC(=O)[C@@]1(O)CC[C@H]2[C@@H]3C[C@H](C)C4=CC(=O)C=C[C@]4(C)[C@@]3(F)[C@@H](O)C[C@@]21C"
class_assignment = 0

[[record]]
compound = "CC(=O)OCCC1CCCCC1"
class_assignment = 0

[[record]]
compound = "CC1=CC[C@H]2C[C@@H]1C2(C)C"
class_assignment = 0

[[record]]
compound = "Cc1cccc(N)n1"
class_assignment = 0


###

# Assay system: X-box-binding protein 1 (Homo sapiens)
# Method notes: ATG_Xbp1_CIS: Attagene CIS-FACTORIAL HepG2 Assay for human X-box Binding Protein 1 (XBP1) (AID 2282972)
# Particulars: HepG2 XBP1 cis-element reporter, Attagene multiplex; actives raise or lower the signal
Activity calls are given as the source filed them. The calls were made as follows: active = hit-call score of the fitted dose curve at least 0.9, where 1 is the maximum; inactive = score below 0.9.
Outcomes: y = active, n = inactive

[[record]]
compound = "O=C(c1ccc(O)cc1)c1ccc(O)cc1O"
assay_system = "X-box-binding protein 1 (Homo sapiens)"
class_assignment = "n"

[[record]]
compound = "O=P(O)(O)Oc1ccccc1"
assay_system = "X-box-binding protein 1 (Homo sapiens)"
class_assignment = "n"

[[record]]
compound = "C=CC=CC=CCCCCC"
assay_system = "X-box-binding protein 1 (Homo sapiens)"
class_assignment = "n"

[[record]]
compound = "O=c1[nH]nc(-c2ccc([N+](=O)[O-])o2)o1"
assay_system = "X-box-binding protein 1 (Homo sapiens)"
class_assignment = "n"

[[record]]
compound = "CC/C=C\\C/C=C\\C/C=C\\CCCCCCCC(=O)O"
assay_system = "X-box-binding protein 1 (Homo sapiens)"
class_assignment = "y"

[[record]]
compound = "CC(C)c1ccc(C#N)cc1"
assay_system = "X-box-binding protein 1 (Homo sapiens)"
class_assignment = "n"

[[record]]
compound = "O=C1CCCC1"
assay_system = "X-box-binding protein 1 (Homo sapiens)"
class_assignment = "n"

[[record]]
compound = "COc1ccc(C(Cl)=C(c2ccc(OC)cc2)c2ccc(OC)cc2)cc1"
assay_system = "X-box-binding protein 1 (Homo sapiens)"
class_assignment = "n"

[[record]]
compound = "CCCCC(CC)COCC1CO1 (stereo unspecified)"
assay_system = "X-box-binding protein 1 (Homo sapiens)"
class_assignment = "n"

[[record]]
compound = "CC1OC1C1CCC2(C)OC2C1 (stereo unspecified)"
assay_system = "X-box-binding protein 1 (Homo sapiens)"
class_assignment = "n"

[[record]]
compound = "O=C(Oc1ccccc1)c1ccc2ccccc2c1O"
assay_system = "X-box-binding protein 1 (Homo sapiens)"
class_assignment = "y"

[[record]]
compound = "O=C1CC2CC1C1CCCC21 (stereo unspecified)"
assay_system = "X-box-binding protein 1 (Homo sapiens)"
class_assignment = "n"

[[record]]
compound = "O=C1CCCCCN1SSN1CCCCCC1=O"
assay_system = "X-box-binding protein 1 (Homo sapiens)"
class_assignment = "y"

[[record]]
compound = "CC(C)(C)C(=O)C=Cc1ccc(Cl)cc1"
assay_system = "X-box-binding protein 1 (Homo sapiens)"
class_assignment = "y"

[[record]]
compound = "CCCCCCCC[N+](C)(CCCCCCCC)CCCCCCCC"
assay_system = "X-box-binding protein 1 (Homo sapiens)"
class_assignment = "n"

[[record]]
compound = "CNC(=S)N(C)C"
assay_system = "X-box-binding protein 1 (Homo sapiens)"
class_assignment = "n"


###

The following compounds are listed with their measured AC50 values.
# Method notes: ATG_PXRE_CIS: Attagene CIS-FACTORIAL HepG2 Assay for human Pregnane X Receptor Element (PXRE) (AID 2282957)
# Particulars: HepG2 Attagene CIS-FACTORIAL PXRE reporter, mRNA; actives raise or lower the signal
Calls of active or inactive are those of the source. Rule for the calls: active = hit-call score of the fitted dose curve at least 0.9, where 1 is the maximum; inactive = score below 0.9.
Observation type: AC50

[[record]]
compound = "CCCCNc1ccc(NCCCC)c2c1C(=O)c1ccccc1C2=O"
observation_type = "AC50"
recorded_result = "0.886 µM (active)"

[[record]]
compound = "C=C1C2CCC(C2)C1(C)C (stereo unspecified)"
observation_type = "AC50"
recorded_result = "31.4 µM (active)"

[[record]]
compound = "O=c1c2ccccc2oc2ccccc12"
observation_type = "AC50"
recorded_result = "27.1 µM (active)"

[[record]]
compound = "Cc1cccc(N(C)C(=S)Oc2ccc3ccccc3c2)c1"
observation_type = "AC50"
recorded_result = "0.61 µM (active)"

[[record]]
compound = "CC(=O)OCCC1CCCCC1"
observation_type = "AC50"
recorded_result = "31.8 µM (active)"


###

# Assay system: Cellular tumor antigen p53 (Homo sapiens) (UniProt P04637)
# Sequence (P04637 whole entry, looked up): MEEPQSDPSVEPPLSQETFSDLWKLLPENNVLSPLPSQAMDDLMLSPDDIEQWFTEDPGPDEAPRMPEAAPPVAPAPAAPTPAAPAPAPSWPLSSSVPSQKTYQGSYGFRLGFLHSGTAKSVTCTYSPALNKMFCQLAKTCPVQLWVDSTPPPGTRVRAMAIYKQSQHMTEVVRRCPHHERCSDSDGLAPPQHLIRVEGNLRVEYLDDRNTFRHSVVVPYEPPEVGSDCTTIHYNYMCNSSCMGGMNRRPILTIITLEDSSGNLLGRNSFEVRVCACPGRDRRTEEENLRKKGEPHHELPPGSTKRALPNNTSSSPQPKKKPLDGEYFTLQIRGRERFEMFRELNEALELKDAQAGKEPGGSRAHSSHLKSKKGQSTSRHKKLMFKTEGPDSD
# Method notes: TOX21_p53_BLA_p2_ratio: Tox21 HCT-116 p53 Agonism Beta-lactamase Assay, Ratio, Phase 2 (AID 2283592)
Inconclusive results are not listed. The source made the active and inactive calls. The calls were made as follows: active = hit-call score of the fitted dose curve at least 0.9, where 1 is the maximum; inconclusive = response in the unintended direction; inactive = score below 0.9.
Outcomes: yes = active, no = inactive

[[record]]
compound = "CN1C(=O)N(C)C(O)C1O (stereo not drawn)"
class_assignment = "no"

[[record]]
compound = "O=C(Oc1ccccc1)c1ccc2ccccc2c1O"
class_assignment = "no"

[[record]]
compound = "COC(=O)C1=C(C)NC(C)=C(C(=O)OCC(C)C)C1c1ccccc1[N+](=O)[O-] (stereo not drawn)"
class_assignment = "yes"


###

# Read-out: Monokine induced gamma interferon (MIG), CXCL9 (gene 4283)
# Method notes: BSK_BE3C_MIG: BioMAP Diversity Plus: BE3C Assay for Monokine induced gamma interferon (MIG) Biomarker Activity (AID 2283035)
# Particulars: primary human bronchial epithelial cells; actives raise or lower the signal
# Method: BSK_BE3C is a cell-based, multiplexed-readout assay that uses bronchial epithelial cell, a human lung primary cell, with measurements taken at 24 hours after chemical dosing in a 96-well plate.BSK_BE3C_MIG is an assay component measured in the BSK_BE3C assay. It measures MIG antibody related to regulation of gene expression using ELISA technology.Data from the assay component BSK_BE3C_MIG was analyzed into 1 assay endpoint. […]
Active and inactive are the calls of the source. The calls were made as follows: active = hit-call score of the fitted dose curve at least 0.9, where 1 is the maximum; inactive = score below 0.9.
Observation type: AC50

[[record]]
compound = "CC(C)C(=O)C(C)C"
observation_type = "AC50"
recorded_result = "inactive"

[[record]]
compound = "S=C(NC1CCCCC1)NC1CCCCC1"
observation_type = "AC50"
recorded_result = "inactive"

[[record]]
compound = "CCCCCCCCc1ccc(Nc2ccc(CCCCCCCC)cc2)cc1"
observation_type = "AC50"
recorded_result = "inactive"

[[record]]
compound = "C=C[Si](OC(C)=O)(OC(C)=O)OC(C)=O"
observation_type = "AC50"
recorded_result = "inactive"

[[record]]
compound = "O=Nc1ccc(O)cc1"
observation_type = "AC50"
recorded_result = "inactive"

[[record]]
compound = "C=CC(=O)OCC(Br)CBr (stereo unspecified)"
observation_type = "AC50"
recorded_result = "31.4 µM (active)"

[[record]]
compound = "C=CCOCC(O)CCl (stereo unspecified)"
observation_type = "AC50"
recorded_result = "inactive"

[[record]]
compound = "c1ccc2c(c1)ccc1cc3c(ccc4ccccc43)cc12"
observation_type = "AC50"
recorded_result = "inactive"

[[record]]
compound = "C/C=C\\C/C=C/CCCCCCCCOC(C)=O"
observation_type = "AC50"
recorded_result = "inactive"

[[record]]
compound = "CCCCC(CC)COC(=O)c1ccccc1O (stereo unspecified)"
observation_type = "AC50"
recorded_result = "inactive"

[[record]]
compound = "O=C(Nc1ccccc1SSc1ccccc1NC(=O)c1ccccc1)c1ccccc1"
observation_type = "AC50"
recorded_result = "inactive"

[[record]]
compound = "CN1C(=O)N(C)C(O)C1O (stereo unspecified)"
observation_type = "AC50"
recorded_result = "inactive"

[[record]]
compound = "COCc1c(C(C)C)nc(C(C)C)c(/C=C/[C@@H](O)C[C@@H](O)CC(=O)O)c1-c1ccc(F)cc1"
observation_type = "AC50"
recorded_result = "inactive"

[[record]]
compound = "CCOc1nc(F)cc2nc(S(=O)(=O)Nc3c(Cl)cccc3C(=O)OC)nn12"
observation_type = "AC50"
recorded_result = "inactive"

[[record]]
compound = "CC1OC1C1CCC2(C)OC2C1 (stereo unspecified)"
observation_type = "AC50"
recorded_result = "inactive"

[[record]]
compound = "c1ccc2c(c1)ccc1ncccc12"
observation_type = "AC50"
recorded_result = "inactive"

[[record]]
compound = "O=c1c2ccccc2oc2ccccc12"
observation_type = "AC50"
recorded_result = "inactive"

[[record]]
compound = "O=C1CCCN1CCO"
observation_type = "AC50"
recorded_result = "inactive"

[[record]]
compound = "C=CCOc1c(Br)cc(Br)cc1Br"
observation_type = "AC50"
recorded_result = "inactive"

[[record]]
compound = "CCO[Si](C)(OCC)OCC"
observation_type = "AC50"
recorded_result = "inactive"

[[record]]
compound = "CCCCNc1ccc(NCCCC)c2c1C(=O)c1ccccc1C2=O"
observation_type = "AC50"
recorded_result = "inactive"

